experimentalTarget: pooled human IgG
attributeMeasured: Enzyme Activity Endpoint Assay (purified): Fab'2 (ng/µL)
Report the value in ng/µL with no unit label.

### Prompt Report Enzyme Activity Endpoint Assay (purified): Fab'2 for PRT-120 (protein) MRNATEAYNEETPKQITSVWTKGVTPLTPEDFRYNNEDVFHAPYLANQGWYDITKTFNGKDNLLCGAATAGNMLHWWFDQNKEEIEAYLKKHPEKQKIIFNNQELFDLKAAIDTKDSQTNSQLFNYFKDKAFPNLSARQLGVMPDLVLDMFINGYYLNVNKTQSTDVNRPYQDKDKRGGIFDAVFTRGDQTKLLTERHDLKNKGLNDISTLIKQELTEGKALALSHTYANVSINHVINLWGADFDAEGNLEAIYVTDSDSNESIGMKKYFVGINAAGKVAISAKKIEDENIGAQVLGLFTLSSGKDIWQQLS
### Response 92
